target: CLDN3/4 endogenously expressed on LS513 and MCF7 cells; experiment: FACS dose curve, labelled mAb, MCF7 cells
readout kind: pEC50
pEC50 here: minus log base 10 of the concentration, concentration in moles per litre.

Data point: AB11 (antibody, V domains shown) VH: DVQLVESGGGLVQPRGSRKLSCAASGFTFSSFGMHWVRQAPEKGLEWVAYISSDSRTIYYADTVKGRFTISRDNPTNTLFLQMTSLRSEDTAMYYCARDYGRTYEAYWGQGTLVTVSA VL: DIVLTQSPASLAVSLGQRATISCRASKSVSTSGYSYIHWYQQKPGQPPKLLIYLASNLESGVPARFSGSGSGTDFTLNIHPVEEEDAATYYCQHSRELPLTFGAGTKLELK ; pEC50 = 6.37
